The measured values listed here are drawn from the supplement of paper PMC11061612.

Test system: SW982 (Other Solid Carcinomas);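 note: after 72 h of two-drug dosing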
EXPERIMENT: Bliss excess, mean over the matrix (fraction); higher = more synergy
PARAMETER: Bliss excess

[ask] Item CS(=O)(=O)CCNCc1ccc(-c2ccc3ncnc(Nc4ccc(OCc5cccc(F)c5)c(Cl)c4)c3c2)o1 [Lapatinib] + Cn1cnc2c(F)c(Nc3ccc(Br)cc3Cl)c(C(=O)NOCCO)cc21 [Selumetinib] (first compound max 10 µM, 7x7, partner max 10 µM) has what recorded Bliss excess?
[reply] 0.034

[ask] Would you kindly share the measured Bliss excess for CN(CCO)CC[C@H](CSc1ccccc1)Nc1ccc(S(=O)(=O)NC(=O)c2ccc(N3CCC([C@@H](O)c4ccccc4-c4ccc(Cl)cc4)CC3)cc2)cc1S(=O)(=O)C(F)(F)F [AZD4320] + CC(=O)O[C@H]1C(=O)[C@@]2(C)[C@H]([C@H](OC(=O)c3ccccc3)[C@]3(O)C[C@H](OC(=O)[C@H](O)[C@@H](NC(=O)c4ccccc4)c4ccccc4)C(C)=C1C3(C)C)[C@]1(OC(C)=O)CO[C@@H]1C[C@@H]2O [Paclitaxel] (first compound max 1 µM, 7x7, partner max 3 µM) ?
[reply] 0.0272

[ask] Please give the measured Bliss excess for this compound: COc1cccc(OCCCN)c1-c1cc(Nc2cnc(C#N)cn2)n[nH]1 [Prexasertib] + Cc1cc2ncnn2cc1Nc1ncc2c(n1)n(C1CCOCC1)c(=O)n2C [AZD7648] (first compound max 1 µM, 7x7, partner max 10 µM)
[reply] -0.0355

[ask] Record request: Bliss excess value, item CN(C)CCCOc1ccc(-c2ccc3ncc4c(c3c2)n(C2CCOCC2)c(=O)n4C)cn1 [AZD0156] + O=C(c1cc(Cc2n[nH]c(=O)c3ccccc23)ccc1F)N1CCN(C(=O)C2CC2)CC1 [Olaparib] (first compound max 3 µM, partner max 3 µM)
[reply] 0.0903

[ask] Look at this compound and give its reported Bliss excess. O=C(c1cc(Cc2n[nH]c(=O)c3ccccc23)ccc1F)N1CCN(C(=O)C2CC2)CC1 [Olaparib] + Cc1c2c(nn1C)CSCc1cc(n(C)n1)CSc1cc(c3ccccc3c1)OCCCc1c(C(=O)O)n(C)c3c-2c(Cl)ccc13 [AZD5991] (first compound max 10 µM, 7x7, partner max 1 µM)
[reply] -0.0011

[ask] Which Bliss excess is reported for this compound? COc1nnc2ccc(N3CCC(c4ccc(OCCN5CCN(C)C(=O)[C@H]5C)cc4)CC3)nn12 [AZD5153] + Cn1cnc2c(F)c(Nc3ccc(Br)cc3Cl)c(C(=O)NOCCO)cc21 [Selumetinib] (first compound max 1 µM, 7x7, partner max 10 µM)
[reply] -0.0039

[ask] Fill in: Bliss excess of COc1nnc2ccc(N3CCC(c4ccc(OCCN5CCN(C)C(=O)[C@H]5C)cc4)CC3)nn12 [AZD5153] + CCN(CCO)CCCOc1ccc2c(Nc3cc(CC(=O)Nc4cccc(F)c4)[nH]n3)ncnc2c1 [AZD2811] (first compound max 1 µM, 7x7, partner max 1 µM) is ___
[reply] -0.0857
